From: ChEMBL document CHEMBL5579851

- protocol: Cytotoxicity against HUVEC cells assessed as cell viability at 128 ug/ml incubated for 24 hrs by CCK-8 assay relative to control
- Format: toxicity, cell-based
- condition notes: human, at 128 µg/mL, read-out: Activity
// reported viability at 24 h, 128 ug/ml per item
Give the value, in units of %, as a plain number.

OC(Cn1cncn1)(Cn1cncn1)c1ccc(F)cc1F = 83
C[C@@H](OCc1ccn(Cc2ccc(Cl)cc2)n1)[C@](O)(Cn1cncn1)c1ccc(F)cc1F = 64.5
C[C@@H]1[C@H](O)[C@@H](C)/C=C/C=C/C=C/C=C/C=C/C=C/C=C/[C@H](O[C@@H]2O[C@H](C)[C@@H](O)[C@H](N)[C@@H]2O)C[C@@H]2O[C@](O)(C[C@@H](O)C[C@@H](O)[C@H](O)CC[C@@H](O)C[C@@H](O)CC(=O)O[C@H]1C)C[C@H](O)[C@H]2C(=O)O = 30.5

Please examine the following record next.
viability at 24 h, 128 ug/ml recorded for this molecule, `C[C@@H](OCc1ccn(Cc2ccc(F)cc2)n1)[C@](O)(Cn1cncn1)c1ccc(F)cc1F` , is 75.8

----------
// reported MIC per item
- Test system: Candida parapsilosis
- protocol: Antifungal activity against Candida parapsilosis 22019 assessed as inhibition of fungal growth incubated for 48 hrs by CLSI based broth microdilution assay
- Assay type: functional
- condition notes: Lodderomyces parapsilosis
Give the value, in units of µg/mL, as a plain number.

Example cases with answers are listed next.
C[C@@H](OCc1ccn(Cc2cccc(Cl)c2Cl)n1)[C@](O)(Cn1cncn1)c1ccc(F)cc1F = 0.25
C[C@@H](OCc1ccn(Cc2c(F)cc(F)cc2F)n1)[C@](O)(Cn1cncn1)c1ccc(F)cc1F = 0.5
C[C@@H](OCc1ccn(Cc2ccc(Cl)cc2F)n1)[C@](O)(Cn1cncn1)c1ccc(F)cc1F = 0.5
Cc1cccc(Cn2ccc(CO[C@H](C)[C@](O)(Cn3cncn3)c3ccc(F)cc3F)n2)c1 = 0.5
OC(Cn1cncn1)(Cn1cncn1)c1ccc(F)cc1F = 4
C[C@@H](OCc1ccn(Cc2ccc(Cl)cc2Cl)n1)[C@](O)(Cn1cncn1)c1ccc(F)cc1F = 0.25
C[C@@H](OCc1ccn(Cc2ccccc2)n1)[C@](O)(Cn1cncn1)c1ccc(F)cc1F = 0.5
C[C@@H](OCc1ccn(Cc2cccc(F)c2F)n1)[C@](O)(Cn1cncn1)c1ccc(F)cc1F = 0.5
Cc1ccc(Cn2ccc(CO[C@H](C)[C@](O)(Cn3cncn3)c3ccc(F)cc3F)n2)cc1 = 0.25
Cc1ccccc1Cn1ccc(CO[C@H](C)[C@](O)(Cn2cncn2)c2ccc(F)cc2F)n1 = 0.5

Please examine the following record next.
MIC recorded for this compound, `C[C@@H](OCc1ccn(Cc2cc(Cl)ccc2Cl)n1)[C@](O)(Cn1cncn1)c1ccc(F)cc1F` , is 1

----------
- System: Saccharomyces cerevisiae
- protocol: Antifungal activity against recombinant Saccharomyces cerevisiae Y2768 overexpressing CauErg11 T132F mutant assessed as inhibition of fungal growth incubated for 48 hrs by CLSI based broth microdilution assay
- Format: functional
// reported MIC per item

C[C@@H](c1nc(-c2ccc(C#N)cc2)cs1)[C@](O)(Cn1cncn1)c1ccc(F)cc1F = 0.008 µg/mL

MIC recorded for this compound, `CC[C@@H]([C@H](C)O)n1ncn(-c2ccc(N3CCN(c4ccc(OC[C@@H]5CO[C@@](Cn6cncn6)(c6ccc(F)cc6F)C5)cc4)CC3)cc2)c1=O` , is 1 µg/mL

MIC recorded for this compound, CC(=O)N1CCN(c2ccc(OCC3COC(Cn4ccnc4)(c4ccc(Cl)cc4Cl)O3)cc2)CC1 (configuration not stated) , is 1 µg/mL

MIC recorded for this compound, `OC(Cn1cncn1)(Cn1cncn1)c1ccc(F)cc1F` , is 64 µg/mL

MIC recorded for this compound, `C[C@@H](c1ncncc1F)[C@](O)(Cn1cncn1)c1ccc(F)cc1F` , is 0.25 µg/mL

MIC recorded for this compound, `C[C@@H](OCc1ccn(Cc2ccc(Cl)cc2)n1)[C@](O)(Cn1cncn1)c1ccc(F)cc1F` , is 0.0313 µg/mL

MIC recorded for this compound, `C[C@@H](OCc1ccn(Cc2ccc(F)cc2)n1)[C@](O)(Cn1cncn1)c1ccc(F)cc1F` , is 0.063 µg/mL
